The measured values listed here are drawn from ChEMBL document CHEMBL6087408.

Reported IC50, Cathepsin B (Homo sapiens, UniProt P07858).
Field: numeric (µM). Do not append units.

In: Query for Cathepsin B (Homo sapiens, UniProt P07858): what IC50 does the record show for CC(C)C[C@H](NC(=O)[C@H]1C[C@@H]1C(=O)O)C(=O)NCCCCNC(=N)N ?
Out: 0.0414

In: Query for Cathepsin B (Homo sapiens, UniProt P07858): what IC50 does the record show for CN(C(=O)[C@@H](NC(=O)C(F)(F)F)C1CC1)[C@@H](Cc1ccc(F)cc1)C(=O)N1C[C@]2(C[C@H]1C#N)C(=O)Nc1ccccc12 ?
Out: 20.7

====

Tested System: Procathepsin L (Homo sapiens, UniProt P07711)
Sequence (P07711 whole entry): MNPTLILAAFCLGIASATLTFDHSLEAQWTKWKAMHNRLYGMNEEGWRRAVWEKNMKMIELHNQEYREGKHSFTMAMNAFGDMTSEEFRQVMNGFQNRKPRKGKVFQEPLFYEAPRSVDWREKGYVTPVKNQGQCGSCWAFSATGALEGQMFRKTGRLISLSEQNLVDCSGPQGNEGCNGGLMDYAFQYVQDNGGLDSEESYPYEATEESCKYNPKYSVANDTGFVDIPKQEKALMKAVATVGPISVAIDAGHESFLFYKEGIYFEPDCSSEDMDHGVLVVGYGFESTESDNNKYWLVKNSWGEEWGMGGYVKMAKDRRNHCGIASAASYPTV
Experimental Protocol: Inhibition of CTSL (unknown origin) incubated for 2 hrs
Readout Kind: IC50 (µM)
Field: numeric (µM). Do not append units.

CN(C(=O)[C@@H](NC(=O)C(F)(F)F)C1CC1)[C@@H](Cc1ccc(F)cc1)C(=O)N1C[C@]2(C[C@H]1C#N)C(=O)Nc1ccccc12 :: 20.2

In: Fill blank: measured IC50 of the compound CC(C)C[C@H](NC(=O)[C@H]1C[C@@H]1C(=O)O)C(=O)NCCCCNC(=N)N is ____.
Out: 0.0562

====

Experimental Protocol: Half life in ICR mouse at 10 mg/kg, iv measured for 24 hrs by LC-MS/MS analysis
Format: ADME, organism-based
Test Parameters: in vivo
Readout Kind: half-life (h)
Field: numeric (h). Do not append units.

CN(C(=O)[C@@H](NC(=O)C(F)(F)F)C1CC1)[C@@H](Cc1ccc(F)cc1)C(=O)N1C[C@]2(C[C@H]1C#N)C(=O)Nc1ccccc12 :: 1.99

In: Fill blank: measured half-life of the compound N#C[C@@H]1C[C@@]2(CN1C(=O)[C@@H](CSCc1ccc(F)cc1)NC(=O)[C@@H](NC(=O)C(F)(F)F)C1CC1)C(=O)Nc1ccccc12 is ____.
Out: 0.47

====

Experimental Protocol: AUC (0 to infinity) in ICR mouse at 10 mg/kg, iv measured for 24 hrs by LC-MS/MS analysis
Format: ADME, organism-based
Test Parameters: in vivo
# AUC(0-inf) annotations

N#C[C@@H]1C[C@@]2(CN1C(=O)[C@@H](CSCc1ccc(F)cc1)NC(=O)[C@@H](NC(=O)C(F)(F)F)C1CC1)C(=O)Nc1ccccc12 :: 2130 ng·h/mL

Note: attention shifts to another entry.
In: Fill blank: measured AUC(0-inf) of the molecule CN(C(=O)[C@@H](NC(=O)C(F)(F)F)C1CC1)[C@@H](Cc1ccc(F)cc1)C(=O)N1C[C@]2(C[C@H]1C#N)C(=O)Nc1ccccc12 is ____.
Out: 3420 ng·h/mL

====

Tested System: Replicase polyprotein 1ab (Severe acute respiratory syndrome coronavirus 2)
Readout Kind: IC50

Previously resolved entries follow.
CN(C(=O)[C@@H](NC(=O)C(F)(F)F)C1CC1)[C@@H](CSCc1ccccc1)C(=O)N1C[C@]2(C[C@H]1C#N)C(=O)Nc1ccccc12 :: 40 nM
N#C[C@@H]1C[C@@]2(CN1C(=O)[C@@H](CSCc1ccc(F)cc1)NC(=O)[C@@H](NC(=O)C(F)(F)F)C1CC1)C(=O)Nc1ccccc12 :: 25 nM
CC(C)(C)OC(=O)N[C@H](C(=O)N[C@@H](CSCc1ccccc1)C(=O)N1C[C@]2(C[C@H]1C#N)C(=O)Nc1ccccc12)C1CC1 :: 47 nM

In: Query for Replicase polyprotein 1ab (Severe acute respiratory syndrome coronavirus 2): what IC50 does the record show for CN(C(=O)[C@@H](NC(=O)C(F)(F)F)C1CC1)[C@@H](CS(=O)(=O)Cc1ccccc1)C(=O)N1C[C@]2(C[C@H]1C#N)C(=O)Nc1ccccc12 ?
Out: 94 nM

In: Query for Replicase polyprotein 1ab (Severe acute respiratory syndrome coronavirus 2): what IC50 does the record show for CN(C(=O)[C@@H](NC(=O)C(C)(C)F)C1CC1)[C@@H](CSCc1ccccc1)C(=O)N1C[C@]2(C[C@H]1C#N)C(=O)Nc1ccccc12 ?
Out: 43 nM

In: Query for Replicase polyprotein 1ab (Severe acute respiratory syndrome coronavirus 2): what IC50 does the record show for CC1(C)[C@@H]2[C@@H](C(=O)N3C[C@]4(C[C@H]3C#N)C(=O)Nc3ccccc34)N(C(=O)[C@@H](NC(=O)C(F)(F)F)C3CC3)C[C@@H]21 ?
Out: 886 nM

In: Query for Replicase polyprotein 1ab (Severe acute respiratory syndrome coronavirus 2): what IC50 does the record show for N#C[C@@H]1C[C@@]2(CN1C(=O)[C@H](CSCc1ccccc1)NC(=O)[C@@H](NC(=O)C(F)(F)F)C1CC1)C(=O)Nc1ccccc12 ?
Out: 298 nM

In: Query for Replicase polyprotein 1ab (Severe acute respiratory syndrome coronavirus 2): what IC50 does the record show for CC(C)(F)C(=O)N[C@H](C(=O)N[C@@H](CSCc1ccccc1)C(=O)N1C[C@]2(C[C@H]1C#N)C(=O)Nc1ccccc12)C1CC1 ?
Out: 97 nM

In: Query for Replicase polyprotein 1ab (Severe acute respiratory syndrome coronavirus 2): what IC50 does the record show for CN(C(=O)[C@@H](NC(=O)OC(C)(C)C)C1CC1)[C@H](CSCc1ccccc1)C(=O)N1C[C@]2(C[C@H]1C#N)C(=O)Nc1ccccc12 ?
Out: 674 nM

====

# CC50 annotations
Experimental Protocol: Cytotoxicity against human Huh-7 cells assessed as cell viability by Cell Titer Glo assay
Format: toxicity, cell-based

Previously resolved entries follow.
N#C[C@@H]1C[C@@]2(CN1C(=O)[C@@H](CSCc1ccc(F)cc1)NC(=O)[C@@H](NC(=O)C(F)(F)F)C1CC1)C(=O)Nc1ccccc12 :: > 5 µM
CN(C(=O)[C@@H](NC(=O)C(F)(F)F)C1CC1)[C@@H](Cc1ccc(F)cc1)C(=O)N1C[C@]2(C[C@H]1C#N)C(=O)Nc1ccccc12 :: > 5 µM

Note: attention shifts to another entry.
In: Fill blank: measured CC50 of the compound CC(C)(C)[C@H](NC(=O)C(F)(F)F)C(=O)N1C[C@H]2[C@@H]([C@H]1C(=O)N[C@H](C#N)C[C@@H]1CCNC1=O)C2(C)C is ____.
Out: > 5 µM

====

Experimental Protocol: Oral bioavailability in ICR mouse at 20 mg/kg measured for 24 hrs by LC-MS/MS analysis
Type: ADME, organism-based
Test Parameters: in vivo
# bioavailability annotations
Field: numeric (%). Do not append units.

CN(C(=O)[C@@H](NC(=O)C(F)(F)F)C1CC1)[C@@H](Cc1ccc(F)cc1)C(=O)N1C[C@]2(C[C@H]1C#N)C(=O)Nc1ccccc12 :: 16.2

Note: attention shifts to another entry.
In: Fill blank: measured bioavailability of the compound N#C[C@@H]1C[C@@]2(CN1C(=O)[C@@H](CSCc1ccc(F)cc1)NC(=O)[C@@H](NC(=O)C(F)(F)F)C1CC1)C(=O)Nc1ccccc12 is ____.
Out: 22.9

====

Experimental Protocol: Cmax in ICR mouse at 20 mg/kg, po measured for 24 hrs by LC-MS/MS analysis
Type: ADME, organism-based
Test Parameters: in vivo
Readout Kind: Cmax (ng/mL)
Field: numeric (ng/mL). Do not append units.

N#C[C@@H]1C[C@@]2(CN1C(=O)[C@@H](CSCc1ccc(F)cc1)NC(=O)[C@@H](NC(=O)C(F)(F)F)C1CC1)C(=O)Nc1ccccc12 :: 1530

Note: attention shifts to another entry.
In: Fill blank: measured Cmax of the compound CN(C(=O)[C@@H](NC(=O)C(F)(F)F)C1CC1)[C@@H](Cc1ccc(F)cc1)C(=O)N1C[C@]2(C[C@H]1C#N)C(=O)Nc1ccccc12 is ____.
Out: 1360

====

Experimental Protocol: Metabolic stability in human liver microsomes assessed as hepatic clearance at 1 uM preincubated for 5 mins followed by NADPH addition measured upto 45 mins by LC-MS/MS analysis
Type: ADME, Microsome
Test Parameters: time < 50 min
Readout Kind: CLhep predicted at 1 µM (mL/min/kg)
Field: numeric (mL/min/kg). Do not append units.

Previously resolved entries follow.
N#C[C@@H]1C[C@@]2(CN1C(=O)[C@@H](CSCc1ccc(F)cc1)NC(=O)[C@@H](NC(=O)C(F)(F)F)C1CC1)C(=O)Nc1ccccc12 :: 8.8
CN(C(=O)[C@@H](NC(=O)C(F)(F)F)C1CC1)[C@@H](Cc1ccc(F)cc1)C(=O)N1C[C@]2(C[C@H]1C#N)C(=O)Nc1ccccc12 :: 18.3

Note: attention shifts to another entry.
In: Fill blank: measured CLhep predicted at 1 µM of the compound CC(C)(C)[C@H](NC(=O)C(F)(F)F)C(=O)N1C[C@H]2[C@@H]([C@H]1C(=O)N[C@H](C#N)C[C@@H]1CCNC1=O)C2(C)C is ____.
Out: 12.7

====

Reported log10 IC50, Replicase polyprotein 1ab (Severe acute respiratory syndrome coronavirus 2).
Reminder: these figures are log10 of reported IC50, in nM before transformation.

Previously resolved entries follow.
CN(C(=O)[C@@H](NC(=O)C(F)(F)F)C1CC1)[C@@H](Cc1ccc(F)cc1)C(=O)N1C[C@]2(C[C@H]1C#N)C(=O)Nc1ccccc12 :: 1.32
CN(C(=O)[C@@H](NC(=O)OC(C)(C)C)C1CC1)[C@@H](CSCc1ccccc1)C(=O)N1C[C@]2(C[C@H]1C#N)C(=O)Nc1ccccc12 :: 1.58
CC(C)(C)[C@H](NC(=O)C(F)(F)F)C(=O)N1C[C@H]2[C@@H]([C@H]1C(=O)N1C[C@]3(CC1C#N)C(=O)Nc1ccccc13)C2(C)C (stereo partly specified) :: 2.39

In: Fill blank: measured log10 IC50 of the compound N#C[C@@H]1C[C@@]2(CN1C(=O)[C@H](CS(=O)(=O)Cc1ccccc1)NC(=O)[C@@H](NC(=O)C(F)(F)F)C1CC1)C(=O)Nc1ccccc12 is ____.
Out: 3.11

In: Fill blank: measured log10 IC50 of the compound CN(C(=O)[C@@H](NC(=O)C(C)(C)F)C1CC1)[C@@H](COCc1ccccc1)C(=O)N1C[C@]2(C[C@H]1C#N)C(=O)Nc1ccccc12 is ____.
Out: 1.72

In: Fill blank: measured log10 IC50 of the compound CC(C)(F)C(=O)N[C@H](C(=O)N[C@@H](COCc1ccccc1)C(=O)N1C[C@]2(C[C@H]1C#N)C(=O)Nc1ccccc12)C1CC1 is ____.
Out: 1.90
